Cited source for all entries: ChEMBL document CHEMBL1201862

Tested on: NCI-H522
Assay: NCI tumour cell line growth inhibition, 48 h
Calls of active or inactive are those of the source. Rule as the data show it: active = GI50 up to about 1.1 µM and inactive = higher.
readoutKind: GI50

INSERT INTO results (compound, readoutkind, reportedvalue) VALUES
  ('CCC(C)C1=C(O)[N+]2([O-])Oc3ccc(-c4c(O)c(O)c(-c5ccc(O)cc5)c(OC(C)=O)c4OC(C)=O)cc3OC2(C(C)CC)C(=O)N1O (centres undefined)', 'GI50', '23.5 µM (inactive)'),
  ('COc1cc2ccc(=O)oc2cc1O', 'GI50', '67.8 µM (inactive)'),
  ('O=C(COc1ccc(OCC(=O)N2C(=O)CN(c3ccccc3)C2=S)cc1)N1C(=O)CN(c2ccccc2)C1=S', 'GI50', '> 61.2 µM (inactive)'),
  ('Nc1nc(O)nc2snnc12', 'GI50', '> 100 µM (inactive)'),
  ('Cc1cc(C)n(CN(Cn2nc(C)cc2C)C2CCCCC2)n1', 'GI50', '20.7 µM (inactive)'),
  ('CCOC(=O)/C=C/C1=C(Br)[C@@]2(C)CC[C@@H]3c4ccc(O)cc4CC[C@H]3[C@@H]2C1', 'GI50', '4.02 µM (inactive)'),
  ('CCCC(=O)c1c(NOC2OC(COC(C)=O)C(OC(C)=O)C(OC(C)=O)C2OC(C)=O)nc(OC)n(C)c1=O (centres undefined)', 'GI50', '> 100 µM (inactive)'),
  ('Nc1ccc2c(c1)CC1c3ccccc3C(C2)c2ccccc21', 'GI50', '> 100 µM (inactive)'),
  ('O=[N+]([O-])c1cc2ncc(-c3ccccc3)c(O)c2cc1/C(Cl)=C/c1ccccc1', 'GI50', '3.48 µM (inactive)');

* * *

Test system: MCF7
Experiment: NCI tumour cell line growth inhibition, 48 h
Active and inactive are the calls of the source. Rule as the data show it: active = GI50 up to about 1.1 µM and inactive = higher.
readoutKind: GI50

INSERT INTO assay_data (molecule, tgt, readoutkind, reportedvalue) VALUES
  ('COC1CC2C=CC3C4OC2(/C(C)=C/C(C)C(C(C)O)OC1=O)C3C(O)C(C)C4OC(=O)c1ccc[nH]1 (stereo not given)', 'MCF7', 'GI50', '94.4 µM (inactive)'),
  ('COP(=O)(OC)/C(=C\c1cn(C(c2ccccc2)(c2ccccc2)c2ccccc2)cn1)NC(C)=O', 'MCF7', 'GI50', '88.3 µM (inactive)'),
  ('CC1(C)SCc2nc3ccccc3n21', 'MCF7', 'GI50', '> 100 µM (inactive)'),
  ('O=C(O)c1cc(-c2ccc3cc(O)c(O)cc3c2)ccc1O', 'MCF7', 'GI50', '> 12.5 µM (inactive)'),
  ('O=C(CCc1ccc(O)cc1)NCCc1ccc(O)cc1', 'MCF7', 'GI50', '> 100 µM (inactive)');

* * *

System: HCT-116
Test: NCI tumour cell line growth inhibition, 48 h
Activity calls are given as the source filed them. No stated cut-off is given here; in the data, active = GI50 up to about 1.1 µM and inactive = higher.
readoutKind: GI50

INSERT INTO assay_data (molecule, tgt, readoutkind, reportedvalue) VALUES
  ('O=c1[nH]nc(Cc2ccccc2)n1/N=C/c1cccnc1', 'HCT-116', 'GI50', '> 100 µM (inactive)'),
  ('CC(=O)OCCOCNC(=S)N/N=C/c1ccc(Br)s1', 'HCT-116', 'GI50', '55 µM (inactive)'),
  ('CN(C)CC1CCCC/C1=N/OC(=O)c1ccc(Cl)c(Cl)c1 (stereo not given)', 'HCT-116', 'GI50', '> 100 µM (inactive)'),
  ('C/C(=N/NC(=S)Nc1ccccc1Cl)c1cccc(/C(C)=N\NC(=S)Nc2ccccc2Cl)n1', 'HCT-116', 'GI50', '16.1 µM (inactive)'),
  ('O=C(Nc1nc(C23CC4CC(CC(C4)C2)C3)cs1)c1cc2cc(Cl)ccc2oc1=O', 'HCT-116', 'GI50', '> 100 µM (inactive)');

* * *

Test system: HOP-62
Experiment: NCI tumour cell line growth inhibition, 48 h
Calls of active or inactive are those of the source. Cut-off read from the data, not from the text of the source: active = GI50 up to about 1.1 µM and inactive = higher.
molecules and their reported GI50
readoutKind: GI50

INSERT INTO assay_data (molecule, tgt, readoutkind, reportedvalue) VALUES
  ('Cc1ccc(CS(=O)(=O)C/N=C2\Sc3ccccc3N\C2=C/C(=O)c2ccc(Cl)cc2)cc1', 'HOP-62', 'GI50', '8.22 µM (inactive)'),
  ('CCOC(=O)c1cccc(/N=N/Nc2cccc(C(=O)OCC)c2)c1', 'HOP-62', 'GI50', '9.12 µM (inactive)'),
  ('COc1nc2c(c(=O)n1C)N=C(c1ccc(Cl)cc1)CC(c1ccccc1)N2 (stereo unspecified)', 'HOP-62', 'GI50', '32.1 µM (inactive)'),
  ('COc1cc(Nc2nc3cc(C(F)(F)F)ccc3nc2-c2ccccc2)cc(OC)c1OC', 'HOP-62', 'GI50', '18.9 µM (inactive)'),
  ('COc1cc(N(CCC#N)CCC#N)ccc1C(/N=N/c1cccc([N+](=O)[O-])c1)=N\NC(=O)c1ccc(C)cc1', 'HOP-62', 'GI50', '> 100 µM (inactive)'),
  ('O=C(Nc1ccc(Cl)cc1)c1cccc([N+](=O)[O-])c1O', 'HOP-62', 'GI50', '1.98 µM (inactive)'),
  ('CC(=O)OCC12CC(CC1OC(C)=O)c1ccccc12 (stereo unspecified)', 'HOP-62', 'GI50', '> 100 µM (inactive)'),
  ('O=C(c1ccccc1)N1CCC(Nc2cccnc2)O1 (stereo unspecified)', 'HOP-62', 'GI50', '> 100 µM (inactive)'),
  ('O=c1[nH]cnc2c1nnn2C1C=C(CO)C(O)C1O (stereo unspecified)', 'HOP-62', 'GI50', '> 100 µM (inactive)'),
  ('O=C(CCCN1CCC2(CC1)CC(=O)N(N1CCOCC1)C2=O)c1ccccc1', 'HOP-62', 'GI50', '> 100 µM (inactive)'),
  ('S=C1CSc2c(cnc3ccccc23)N1', 'HOP-62', 'GI50', '> 100 µM (inactive)');

* * *

Tested on: OVCAR-3
Test: NCI tumour cell line growth inhibition, 48 h
Activity calls are given as the source filed them. Rule as the data show it: active = GI50 up to about 1.1 µM and inactive = higher.
molecules and their reported GI50
readoutKind: GI50

INSERT INTO results (molecule, reportedvalue) VALUES
  ('NNC(=O)c1ccccc1NC(=O)/C(=C/c1ccccc1)NC(=O)c1ccccc1', '> 100 µM (inactive)'),
  ('CCOC(=O)C1Cc2[nH]c3ccccc3c2C(C)C1C (stereo unspecified)', '15.6 µM (inactive)'),
  ('COc1ccc(C(=O)O/N=C2/CCCCC2CN(C)C)cc1 (stereo unspecified)', '> 100 µM (inactive)'),
  ('O=C(Nc1ccc2ccccc2c1)Nn1cnnc1', '> 100 µM (inactive)'),
  ('COc1cc2c(c(OC)c1OC)-c1ccc(OC)c(=O)cc1C(NC(=O)CCCCCNc1ccc(N=[N+]=[N-])cc1[N+](=O)[O-])CC2 (stereo unspecified)', '< 0.01 µM (active)'),
  ('Nc1ccccc1C(=O)/C=C/c1ccccc1O', '31.4 µM (inactive)');

* * *

System: KM12
Assay: NCI tumour cell line growth inhibition, 48 h
Calls of active or inactive are those of the source. Rule as the data show it: active = GI50 up to about 1.1 µM and inactive = higher.
Labels: active, inactive

INSERT INTO results (molecule, group) VALUES
  ('S=C1OC2CCCC[C@H]2O1 (stereo partly drawn)', 'inactive'),
  ('S=C(N/N=C(/c1ccccc1)c1ccccn1)Nc1cccc(Cl)c1', 'active'),
  ('CC(C)C1NC(=O)[C@H](C)OC(=O)[C@@H](C(C)C)NC(=O)[C@@H](C)OC(=O)C(C(C)C)NC(=O)[C@H](C)OC1=O (stereo partly drawn)', 'inactive'),
  ('CN(C)c1ccc(C=C2N=C(c3ccccc3)N(c3cc(C(=O)c4ccccc4)ccc3N3C(=O)/C(=C/c4ccc(N(C)C)cc4)N=C3c3ccccc3)C2=O)cc1', 'inactive'),
  ('Cc1cccc2c3ccc4c(c3n(C)c12)C(=O)C=CC4=O', 'inactive'),
  ('O=C(CCc1n[nH]c(=S)o1)Nc1cc(Cl)c(Cl)cc1Cl', 'inactive'),
  ('CS(=O)(=O)c1cc(=O)c2ccccc2s1', 'inactive'),
  ('O=c1c(O)c(-c2ccc(O)c(O)c2)oc2cc(O)cc(O)c12 [QUERCETIN]', 'inactive');

* * *

Test system: SK-OV-3
Assay: NCI tumour cell line growth inhibition, 48 h
Calls of active or inactive are those of the source. No stated cut-off is given here; in the data, active = GI50 up to about 1.1 µM and inactive = higher.
Labels: active, inactive

INSERT INTO measurements (compound, group) VALUES
  ('O=C1C2C3C=CC(C2C(=O)N1COP(=O)(O)O)C1C2C(=O)N(COP(=O)(O)O)C(=O)C2C31 (configuration not stated)', 'inactive'),
  ('O=C1NC2c3c(I)sc(I)c3C(O)C2O1 (configuration not stated)', 'inactive'),
  ('c1ccc(-c2nc(-c3ccccc3)c(-c3ccccc3)[nH]2)cc1', 'inactive'),
  ('COc1cc(N(CCC#N)CCC#N)ccc1C(/N=N/c1cccc([N+](=O)[O-])c1)=N\NC(=O)c1ccc(C)cc1', 'inactive'),
  ('CC1=C(C(=O)CC(=O)C(=O)Nc2ccccc2C(F)(F)F)Sc2ccccc2N1', 'inactive'),
  ('O=C(O)C1C2C=CC(C2)C1c1ccccc1 (configuration not stated)', 'inactive'),
  ('COc1ccc(OC)c(C(=O)/C=C/c2cc(O)c(O)cc2F)c1', 'inactive'),
  ('CCCCCCCCCCCCCCCCOP(=O)(O)OP(=O)(O)OCC1OC(n2cnc3c(N)ncnc32)C(O)C1O (configuration not stated)', 'inactive'),
  ('C=C[C@@]1(C)CCC2(O)C(CCC3C2(C)CCC[C@@]3(C)COC(=O)CC(=O)OC)C1 (some centres not stated)', 'inactive'),
  ('COc1cc2cc3c4cc(OC)c(OC)cc4cc[n+]3c(C)c2cc1OC [CORALYNE]', 'inactive'),
  ('CN(C)S(=O)(=O)Nc1ccccn1', 'inactive'),
  ('Cc1nn(C(=O)c2ccc(Cl)cc2)c2c1C(c1cccc([N+](=O)[O-])c1)SC(=N)N2 (configuration not stated)', 'inactive'),
  ('COC(=O)c1ccc2c(c1)S/C(=C/c1ccc3ccc4cccc5ccc1c3c45)S2', 'inactive'),
  ('OC(c1ccccc1)(c1ccccc1)c1ccncc1', 'inactive'),
  ('CCOC(=O)NC(=O)c1cn(CCNCCO)c(=O)[nH]c1=O', 'inactive'),
  ('O=C1N[C@@H]2c3c(Br)sc(Br)c3C(=O)[C@@H]2O1', 'inactive'),
  ('CCOC(=O)c1nc2ccccc2nc1NCc1ccc(OC)c(OC)c1', 'inactive'),
  ('Cc1nnc2sc(Cl)nn12', 'inactive'),
  ('COc1cc(C2c3cc4c(cc3[C@@H](NCCN3CCCCC3)C3COC(=O)[C@H]23)OCO4)cc(OC)c1O (some centres not stated)', 'active'),
  ('Cc1cccc(C)c1NC(=S)N/C=C(\C#N)C(N)=O', 'inactive'),
  ('CC(=O)NC(Cc1ccsc1)C(=O)O (configuration not stated)', 'inactive'),
  ('CC(Br)CN1CCOCC1 (configuration not stated)', 'inactive');
